# System: platelets
# Assay summary: Collagen-induced platelet aggregation (aggregometer)
# Format: cell-based, human
# Conditions: Homo sapiens, Platelet, read-out: IC50 inhibition of platelet aggregation, 5 μg/mL collagen; 30 min pretreatment
Observation type: pIC50
Numbers only, as −log10 of the molar value.

# input State, in one line, measured pIC50 of "C/C(O)=C(\C#N)C(=O)Nc1cc(Br)ccc1Br"
# output 4.18

---

# Assay summary: Pharmacokinetics in mice (HPLC plasma levels)
# Conditions: mouse, in vivo, ip, 25 mg/kg
Observation type: Cmax (µM)
One number for each entry, in µM.

# input State, in one line, measured Cmax of "C/C(O)=C(\C#N)C(=O)Nc1cc(Br)ccc1Br"
# output 383
